biological target: EPHB1 (UniProt P54762); assay: phosphorylation enrichment, bacterial display (enrichment ratio); higher = better substrate or ligand; peptides without Tyr show the background
Sequence (P54762 whole entry, looked up): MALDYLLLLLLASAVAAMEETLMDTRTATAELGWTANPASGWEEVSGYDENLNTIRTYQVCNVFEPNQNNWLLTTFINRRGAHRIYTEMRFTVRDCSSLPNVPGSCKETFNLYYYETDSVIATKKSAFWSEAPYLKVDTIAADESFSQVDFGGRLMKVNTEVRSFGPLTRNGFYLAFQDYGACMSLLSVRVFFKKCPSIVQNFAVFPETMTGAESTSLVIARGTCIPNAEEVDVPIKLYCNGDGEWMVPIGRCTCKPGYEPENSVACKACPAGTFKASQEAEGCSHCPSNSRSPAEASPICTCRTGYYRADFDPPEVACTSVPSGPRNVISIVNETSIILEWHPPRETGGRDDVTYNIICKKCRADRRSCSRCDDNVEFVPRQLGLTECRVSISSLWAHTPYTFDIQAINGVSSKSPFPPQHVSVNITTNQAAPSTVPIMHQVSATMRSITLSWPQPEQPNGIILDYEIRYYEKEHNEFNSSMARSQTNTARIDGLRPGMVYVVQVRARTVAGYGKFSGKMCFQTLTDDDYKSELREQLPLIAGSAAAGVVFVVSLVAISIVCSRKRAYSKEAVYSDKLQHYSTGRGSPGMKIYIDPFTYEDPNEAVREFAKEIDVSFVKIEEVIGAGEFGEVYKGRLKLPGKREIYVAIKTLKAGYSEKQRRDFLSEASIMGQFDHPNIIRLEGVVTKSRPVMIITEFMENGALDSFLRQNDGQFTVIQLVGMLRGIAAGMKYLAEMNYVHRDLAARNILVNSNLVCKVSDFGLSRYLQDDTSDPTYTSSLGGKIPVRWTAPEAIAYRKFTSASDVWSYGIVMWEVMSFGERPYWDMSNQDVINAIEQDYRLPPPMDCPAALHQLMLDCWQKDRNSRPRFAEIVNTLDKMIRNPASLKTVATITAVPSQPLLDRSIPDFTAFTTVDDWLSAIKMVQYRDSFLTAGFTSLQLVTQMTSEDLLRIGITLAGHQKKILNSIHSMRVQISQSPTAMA
assay-endpoint: phosphorylation enrichment
Please give only the number in your answer, with no unit.

Provide phosphorylation enrichment, tested on EPHB1 (UniProt P54762), for YSSLGYPLPEG [ZSWIM4_Y87_P89L] .
0.53

State measured phosphorylation enrichment of the sequence SFVMVYEGNAR [INSR_Y1038_G1035V] with EPHB1 (UniProt P54762).
0.621

Send back EPHB1 (UniProt P54762) phosphorylation enrichment of VLRQVYVDFEG [KMT2B_Y1707_R1705Q] only.
0.877

Provide the reported phosphorylation enrichment (system: EPHB1 (UniProt P54762)) for EESREYDRLYE [PIK3R1_Y463_K459E]
0.761

Report phosphorylation enrichment from EPHB1 (UniProt P54762) testing of FEELVYETVRV [FSHB_Y76_K72E]
4.38

Provide phosphorylation enrichment, system EPHB1 (UniProt P54762), entry TLNHQYDYTFH [CSNK1A1_Y292_D297H]
0.772

* * *

test system: c-Src; assay: phosphorylation enrichment, bacterial display (enrichment ratio); higher = better substrate or ligand; peptides without Tyr show the background
phosphorylation enrichment of 1 or higher: Y. Under 1: N.

Dear colleague, could you confirm whether ADEEYYEIIAA [FEStide_no-pY_2014] has phosphorylation enrichment at or above 1?
Y

Decide: phosphorylation enrichment of EDGFAYVPLKD [PRIM2_Y208] >= 1?
N

Textbook exercise: given the entry LASSEYPVQRR [GALK1_Y236_R239Q] , state whether its phosphorylation enrichment is greater than or equal to 1.
N

Check this sequence for phosphorylation enrichment at or above 1: FGMQLYQKFMH [GRB14_Y347_N349K_YF]
Y

Dear colleague, could you confirm whether RSFPSYFTSHV [NEFL_Y442_YF] has phosphorylation enrichment at or above 1?
N

Continuing:
Determine whether this sequence has phosphorylation enrichment no lower than 1: LARDIYKNDYY [ROS1_Y2110]
Y

Kindly determine if phosphorylation enrichment recorded for DYTEAYNPKIK [CLK1_Y305] is above or exactly 1.
N

Assess whether reported phosphorylation enrichment for AVRYIYTIDGS [DCX_Y105_G100A] sits at 1 or higher.
Y

In plain terms: is recorded phosphorylation enrichment at least 1 for KTGDYYDLYGG [PTPN11_Y63_N58K] ?
Y

In plain terms: is recorded phosphorylation enrichment at least 1 for KVKEQYQDVPM [PKP2_Y659] ?
N

Does phosphorylation enrichment meet or surpass 1 for CCKNRYDKDKP [THAP1_Y14_G9C] ?
N

Could you verify whether the entry DLRTGYSVPYG [TGM1_Y370_Y365D] shows phosphorylation enrichment of no less than 1?
N

Would you say LEVETYRRLLD [KRT12_Y429_I426V] shows phosphorylation enrichment at minimum 1?
N

Check if phosphorylation enrichment >= 1 (inclusive). Item: `IETGRYEILTE`
N

* * *

molecular target: Fes (UniProt P07332); experiment: phosphorylation enrichment, bacterial display (enrichment ratio); higher = better substrate or ligand; peptides without Tyr show the background
Sequence (P07332 whole entry, looked up): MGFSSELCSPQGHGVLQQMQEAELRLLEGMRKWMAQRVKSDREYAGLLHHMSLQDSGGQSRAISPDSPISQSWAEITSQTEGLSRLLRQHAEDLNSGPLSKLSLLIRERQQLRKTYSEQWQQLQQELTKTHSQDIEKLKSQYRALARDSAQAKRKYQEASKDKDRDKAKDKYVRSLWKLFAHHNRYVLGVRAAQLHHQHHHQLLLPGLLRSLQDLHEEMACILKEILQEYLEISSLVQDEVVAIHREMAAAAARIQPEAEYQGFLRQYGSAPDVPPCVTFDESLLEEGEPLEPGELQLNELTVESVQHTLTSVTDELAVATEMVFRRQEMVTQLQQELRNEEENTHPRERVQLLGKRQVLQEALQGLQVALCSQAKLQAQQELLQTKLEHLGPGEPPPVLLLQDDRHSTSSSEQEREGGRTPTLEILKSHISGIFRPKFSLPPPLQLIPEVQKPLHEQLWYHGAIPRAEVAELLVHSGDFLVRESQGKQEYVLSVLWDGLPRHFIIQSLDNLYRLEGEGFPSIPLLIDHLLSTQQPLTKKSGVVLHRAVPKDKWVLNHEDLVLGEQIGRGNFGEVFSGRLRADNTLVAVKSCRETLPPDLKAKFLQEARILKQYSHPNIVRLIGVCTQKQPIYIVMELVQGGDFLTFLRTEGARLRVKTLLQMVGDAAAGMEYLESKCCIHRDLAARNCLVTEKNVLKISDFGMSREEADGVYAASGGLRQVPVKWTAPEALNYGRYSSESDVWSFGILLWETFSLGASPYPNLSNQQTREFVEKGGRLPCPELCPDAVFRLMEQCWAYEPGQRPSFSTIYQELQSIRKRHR
assay-endpoint: phosphorylation enrichment
// return a plain number; no unit text

Using the record for HTLIKYTDGDQ [PUS7L_Y94] , state its measured phosphorylation enrichment.
1.76

Tell me phosphorylation enrichment reported for FVTSMYNEILI [TRPV1_Y310_M315I]
1.32

Determine its reported phosphorylation enrichment: TKDTFYKQPMV [GBA_Y451_F456V]
0.914

Continuing:
Tell me phosphorylation enrichment reported for DESEDCRDTVV [CNNM3_Y456_Y456C]
1.11

Write down phosphorylation enrichment measured for item GIVKAYYVRAR [AIPL1_Y267]
0.771

Give phosphorylation enrichment for the following sequence: REGKIYEFNQV [ZNF665_Y162_H157R_YF]
0.758

* * *

Below: a set of entries, each annotated with reported phosphorylation enrichment.
biological target: Jak2 (UniProt O60674); test: phosphorylation enrichment, bacterial display (enrichment ratio); higher = better substrate or ligand; peptides without Tyr show the background
Sequence (O60674 whole entry, looked up): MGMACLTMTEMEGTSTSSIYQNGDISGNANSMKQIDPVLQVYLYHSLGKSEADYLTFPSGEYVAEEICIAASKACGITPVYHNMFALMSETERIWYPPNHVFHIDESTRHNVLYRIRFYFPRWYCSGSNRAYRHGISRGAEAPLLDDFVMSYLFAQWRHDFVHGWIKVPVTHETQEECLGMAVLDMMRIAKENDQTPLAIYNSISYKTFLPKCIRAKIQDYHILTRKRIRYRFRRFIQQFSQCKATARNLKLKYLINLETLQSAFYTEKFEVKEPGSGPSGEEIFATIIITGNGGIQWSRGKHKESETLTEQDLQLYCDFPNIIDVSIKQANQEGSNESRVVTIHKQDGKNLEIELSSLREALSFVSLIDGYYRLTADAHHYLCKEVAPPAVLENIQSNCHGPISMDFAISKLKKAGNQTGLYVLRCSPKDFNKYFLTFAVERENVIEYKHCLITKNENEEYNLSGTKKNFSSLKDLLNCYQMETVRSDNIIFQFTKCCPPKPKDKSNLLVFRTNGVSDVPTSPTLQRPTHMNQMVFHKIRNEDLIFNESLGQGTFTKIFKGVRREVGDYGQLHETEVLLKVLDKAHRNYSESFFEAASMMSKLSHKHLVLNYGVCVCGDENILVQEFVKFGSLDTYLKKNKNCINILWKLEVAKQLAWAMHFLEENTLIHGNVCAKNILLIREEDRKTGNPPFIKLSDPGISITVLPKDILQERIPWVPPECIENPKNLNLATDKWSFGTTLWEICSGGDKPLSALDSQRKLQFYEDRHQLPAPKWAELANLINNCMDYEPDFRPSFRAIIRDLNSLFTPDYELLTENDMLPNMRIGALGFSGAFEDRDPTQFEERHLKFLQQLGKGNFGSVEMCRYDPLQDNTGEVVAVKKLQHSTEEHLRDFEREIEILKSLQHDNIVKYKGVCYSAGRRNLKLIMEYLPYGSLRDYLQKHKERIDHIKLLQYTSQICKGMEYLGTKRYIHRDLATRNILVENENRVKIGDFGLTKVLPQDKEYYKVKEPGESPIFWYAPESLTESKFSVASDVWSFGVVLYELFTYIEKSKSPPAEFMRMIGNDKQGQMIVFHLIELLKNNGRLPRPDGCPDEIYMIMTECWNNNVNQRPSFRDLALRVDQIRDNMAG

Would you please look over these solved cases?
Dear colleague, please send me the reported phosphorylation enrichment for HKDNNYVSMWF [PAPOLG_Y432] when you can.
1.01

Give the measured phosphorylation enrichment for NFADPYRQLQF [CTNND2_Y503_YF]
0.667

Give me measured phosphorylation enrichment, please, for this sequence: GQKVAYGGTGD [ALDH3A1_Y305]
0.417

Identify the reported phosphorylation enrichment for the following entry. SFHCSYSEIKD [DCLRE1C_Y322_S320C]
0.9

Hello, please tell me recorded phosphorylation enrichment for this one: QMQAAYQKAVA [HBD_Y131_V134A]
0.635

Next:
Output measured phosphorylation enrichment for this item: YTDPYYDYEIE [ZC3H18_Y372_A368T]
1.31

Return value of phosphorylation enrichment for input IRSGIYFKPES [L2HGDH_Y102_H98R_YF] , no commentary.
1.19

Item PLDGEYFILQI [TP53_Y327_T329I] : provide phosphorylation enrichment
2.88

Name the recorded phosphorylation enrichment of the sequence listed here: ARMTNYGLPRY [TSPAN12_Y138]
0.606

Give reported phosphorylation enrichment value for KKHFSYAWPFF [BRDT_Y291_YF]
0.976

* * *

Measured SH2 binding enrichment values are reported for all entries that follow.
target: SHP2-C SH2; assay: SH2 binding enrichment of the phosphorylated peptide, bacterial display (enrichment ratio); higher = better substrate or ligand; peptides without Tyr show the background;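 also: peptide library displayed on the E. coli surface as eCPX fusions, selected cells deep-sequenced, score is each peptide's frequency after selection divided by its frequency in the input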
Answer with a bare number; do not write a unit.

Below, 3 sequences whose answers are already recorded.
Answer with the recorded SH2 binding enrichment for the sequence listed here: HESEIYGKVCF [CSRP3_Y57_C58G_YF]
0.672

Let me know recorded SH2 binding enrichment for DAASNYARGHY [TUBA3E_Y103] , thanks.
0.743

For the sequence SSAAGYACLAY [MVD_Y131] , give its measured SH2 binding enrichment value.
3.04

Continuing:
Give me measured SH2 binding enrichment, please, for this sequence: VMSMNYRVGAL [BCHE_Y174_V170M]
0.775

Report SH2 binding enrichment for GNLLIYTELGK [HGD_Y166_F169L]
0.478

State, in one line, measured SH2 binding enrichment of KDQGGYAMHQD [MAPT_Y29_T30A]
0.399

Report measured SH2 binding enrichment; entry is APIEDYGGGGG [B4GALT6_Y382]
0.627

Determine its reported SH2 binding enrichment: NTGLEYIKFTW [HRH1_Y386_D385E]
0.778

Given the sequence RVAFQYGVTDL [MYBPC3_Y340_I336V] , write its reported SH2 binding enrichment.
0.432

Specify reported SH2 binding enrichment for the sequence shown: ADEEYYEIIAA [FEStide_no-pY_2014]
0.647

Find the measured SH2 binding enrichment of PVVKLYATDGR [RP1_Y199] and report it.
0.558

* * *

Measured phosphorylation enrichment of individual entries
test system: c-Abl (mouse); assay: phosphorylation enrichment, bacterial display (enrichment ratio); higher = better substrate or ligand; peptides without Tyr show the background
Simply state the number, no unit and no words.

Solved entries (count: 6):
Enter measured phosphorylation enrichment, system c-Abl (mouse), for the sequence shown: FRARAYGFRGP [CHGA_Y381]
0.658

Look up c-Abl (mouse) data: phosphorylation enrichment of PQQLWYTHKKK [UBTF_Y207_E210K] , then report it.
0.981

Quote phosphorylation enrichment with test system c-Abl (mouse) for ALTDNYMFLVI [HAGH_Y61_YF]
1.22

Give measured phosphorylation enrichment for EVDETYVPKKF [ALB_Y521_E525K] (c-Abl (mouse)).
0.607

Please indicate recorded phosphorylation enrichment of KVKEQYQDVPM [PKP2_Y659] measured with c-Abl (mouse).
0.603

Output reported phosphorylation enrichment of the sequence ETLLFYGFRRS [POR_Y564_C566Y_YF] on c-Abl (mouse).
0.542

Further cases:
Return reported phosphorylation enrichment for target or system c-Abl (mouse), item AEYGLYRAMVR [VSX2_Y222_G223R] .
7.87

* * *

biological target: Hck (UniProt P08631); test: phosphorylation enrichment, bacterial display (enrichment ratio); higher = better substrate or ligand; peptides without Tyr show the background
Sequence (P08631 whole entry, looked up): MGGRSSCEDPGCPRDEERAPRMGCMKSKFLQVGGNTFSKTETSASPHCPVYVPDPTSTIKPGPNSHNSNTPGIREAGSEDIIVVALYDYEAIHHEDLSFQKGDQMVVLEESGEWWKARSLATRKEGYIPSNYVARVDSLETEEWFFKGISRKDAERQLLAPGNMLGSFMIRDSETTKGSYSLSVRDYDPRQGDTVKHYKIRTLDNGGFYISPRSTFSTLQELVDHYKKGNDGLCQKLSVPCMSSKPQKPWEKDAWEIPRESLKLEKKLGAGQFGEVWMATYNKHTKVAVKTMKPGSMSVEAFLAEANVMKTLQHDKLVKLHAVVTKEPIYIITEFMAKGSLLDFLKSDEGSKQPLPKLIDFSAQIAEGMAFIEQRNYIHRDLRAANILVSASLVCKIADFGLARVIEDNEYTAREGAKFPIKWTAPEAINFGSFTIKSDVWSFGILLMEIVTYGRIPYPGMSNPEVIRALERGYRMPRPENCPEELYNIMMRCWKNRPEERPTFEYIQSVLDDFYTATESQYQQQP
assay-endpoint: phosphorylation enrichment
Form rule: numeric answer, no unit written next to it.

Report phosphorylation enrichment for KERNQYGGVMV [MMP21_Y347_E349G]
0.474

Answer with reported phosphorylation enrichment of FSQETYFRVSN [ABCD1_Y180_Q178E_YF]
0.868

Supply phosphorylation enrichment value. Item: SSDKVYAHQMD [MLH1_Y379_V384D]
0.419

Next:
Give phosphorylation enrichment for the following sequence: SPRDTYSDRIG [CTPS1_Y567_S571I]
0.471

* * *

biological target: FGFR3 (UniProt P22607); assay: phosphorylation enrichment, bacterial display (enrichment ratio); higher = better substrate or ligand; peptides without Tyr show the background
Sequence (P22607 whole entry, looked up): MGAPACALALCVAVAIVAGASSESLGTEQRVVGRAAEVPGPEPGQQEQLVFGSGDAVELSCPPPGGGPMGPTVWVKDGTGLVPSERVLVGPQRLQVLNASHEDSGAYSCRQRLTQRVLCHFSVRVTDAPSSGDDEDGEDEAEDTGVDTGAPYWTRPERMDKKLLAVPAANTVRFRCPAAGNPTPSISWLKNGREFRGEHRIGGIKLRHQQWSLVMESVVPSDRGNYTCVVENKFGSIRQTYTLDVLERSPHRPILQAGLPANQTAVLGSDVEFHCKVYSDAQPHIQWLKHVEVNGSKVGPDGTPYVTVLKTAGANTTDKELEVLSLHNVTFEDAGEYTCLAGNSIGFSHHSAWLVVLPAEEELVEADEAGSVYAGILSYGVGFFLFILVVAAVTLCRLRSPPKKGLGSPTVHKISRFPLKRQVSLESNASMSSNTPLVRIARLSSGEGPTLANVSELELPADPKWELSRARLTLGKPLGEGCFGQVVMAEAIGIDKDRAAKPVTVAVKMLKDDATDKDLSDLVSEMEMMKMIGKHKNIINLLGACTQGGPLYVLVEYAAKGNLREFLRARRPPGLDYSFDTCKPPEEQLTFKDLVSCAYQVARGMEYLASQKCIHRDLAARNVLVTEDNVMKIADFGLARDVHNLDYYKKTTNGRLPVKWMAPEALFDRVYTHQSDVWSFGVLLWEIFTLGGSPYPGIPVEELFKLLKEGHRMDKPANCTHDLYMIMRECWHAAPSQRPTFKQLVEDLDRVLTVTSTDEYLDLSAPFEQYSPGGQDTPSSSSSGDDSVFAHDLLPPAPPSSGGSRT
Measured phosphorylation enrichment values are reported for all entries that follow.
Reply briefly: the number, and no unit.

Known results for sequences:
System FGFR3 (UniProt P22607). Read-out phosphorylation enrichment. Item VHNLDYYKETT [FGFR3_Y647_K650E] . Report value.
0.769

Enter measured phosphorylation enrichment, system FGFR3 (UniProt P22607), for the sequence shown: FLNSIYQSRDE [ROS1_Y2227_K2228Q]
0.785

Consider the sequence DLRTGYSVPYG [TGM1_Y370_Y365D] tested on FGFR3 (UniProt P22607); state its phosphorylation enrichment.
0.592

More entries:
Identify measured phosphorylation enrichment obtained with FGFR3 (UniProt P22607) for ADCRYYTFPQM [GAMT_Y223_A224T] .
7.83

Report phosphorylation enrichment from FGFR3 (UniProt P22607) testing of GLRFGYGVLGG [KRTAP20-2_Y15_YF]
0.574

Identify measured phosphorylation enrichment obtained with FGFR3 (UniProt P22607) for KILTHYKQPHT [KMT2D_Y5349_R5351Q] .
0.412

// fetch phosphorylation enrichment for EEQKRYYNAMK [SCN5A_Y1494_K1493R] ; system: FGFR3 (UniProt P22607)
0.48

Report the value of phosphorylation enrichment obtained on FGFR3 (UniProt P22607) for SNKLYYQLEQE [PDPR_Y110] .
4.95

Enter recorded phosphorylation enrichment with FGFR3 (UniProt P22607) for NQELIYEGRRL [TBK1_Y354] here.
0.808

Give measured phosphorylation enrichment for ETDPRYFDEEF [AKT1_Y437_T435P] (FGFR3 (UniProt P22607)).
0.787

System FGFR3 (UniProt P22607). Read-out phosphorylation enrichment. Item QDLFLYQTHSE [PKHD1_Y255] . Report value.
0.822

With FGFR3 (UniProt P22607) as the test system, provide measured phosphorylation enrichment for this sequence: HSQEDYFECFQ [ZIM2_Y411]
8.51

Report its phosphorylation enrichment with FGFR3 (UniProt P22607) as the test system: SFVMVYEGNAR [INSR_Y1038_G1035V]
0.85

Write phosphorylation enrichment of QLAPQYTYTQG [FLNA_Y1761_A1764T] ; system used: FGFR3 (UniProt P22607)
0.768

State recorded phosphorylation enrichment with FGFR3 (UniProt P22607), entry ALTDNYMFLVI [HAGH_Y61_YF] , no comment.
5.16

Quote phosphorylation enrichment with test system FGFR3 (UniProt P22607) for RLLVVFPWTQR [HBB_Y36_Y36F]
1.08

Give reported phosphorylation enrichment for QAKRKYQEVSK [FES_Y156_A159V] (FGFR3 (UniProt P22607))
0.37
